# TARGET OR TEST SYSTEM: human FcRn complex (FCGRT and beta-2 microglobulin), recombinant, purified (human) (UniProt P55899)
# Sequence (P55899 24-297 limits assumed, chain 1 of 2): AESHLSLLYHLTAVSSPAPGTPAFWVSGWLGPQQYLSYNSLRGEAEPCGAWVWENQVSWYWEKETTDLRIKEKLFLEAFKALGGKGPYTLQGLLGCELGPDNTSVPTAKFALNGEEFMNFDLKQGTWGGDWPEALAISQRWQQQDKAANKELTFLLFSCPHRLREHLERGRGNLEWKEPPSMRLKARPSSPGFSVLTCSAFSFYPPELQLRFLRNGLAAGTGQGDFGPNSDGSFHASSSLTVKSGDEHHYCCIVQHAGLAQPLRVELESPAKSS
# Sequence (P61769 21-119 limits assumed, chain 2 of 2, further chain): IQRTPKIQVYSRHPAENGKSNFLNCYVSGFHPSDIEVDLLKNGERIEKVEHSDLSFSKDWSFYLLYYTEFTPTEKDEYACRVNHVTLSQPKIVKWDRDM
# PROCEDURE SUMMARY: SPR, anti-human Fab capture, pH 7.4, steady state
Examples of binders with documented Kd follow.
Please reply with the bare figure in nM and do not write the unit itself.

Examples with answers:
anti-BACE1 hIgG4 antibody, Fc modification Q7 (M252Y/Q311A/N434Y/Y436I) (antibody, part only; not given: anti-BACE1 variable domains, not shown: another chain or arm of the molecule) Fc: PAPEFLGGPSVFLFPPKPKDTLYISRTPEVTCVVVDVSQEDPEVQFNWYVDGVEVHNAKTKPREEQFNSTYRVVSVLTVLHADWLNGKEYKCKVSNKGLPSSIEKTISKAKGQPREPQVYTLPPSQEEMTKNQVSLTCLVKGFYPSDIAVEWESNGQPENNYKTTPPVLDSDGSFFLYSRLTVDKSRWQEGNVFSCSVMHEALHYHITQKSLSLSLGK | 230
anti-Abeta hIgG4 antibody, Fc modification Q6 (M252Y/M428L/N434Y/Y436I) (antibody, part only; not given: anti-Abeta variable domains, not shown: another chain or arm of the molecule) Fc: PAPEFLGGPSVFLFPPKPKDTLYISRTPEVTCVVVDVSQEDPEVQFNWYVDGVEVHNAKTKPREEQFNSTYRVVSVLTVLHQDWLNGKEYKCKVSNKGLPSSIEKTISKAKGQPREPQVYTLPPSQEEMTKNQVSLTCLVKGFYPSDIAVEWESNGQPENNYKTTPPVLDSDGSFFLYSRLTVDKSRWQEGNVFSCSVLHEALHYHITQKSLSLSLGK | 285
anti-BACE1 hIgG4 antibody, Fc modification Q6 (M252Y/M428L/N434Y/Y436I) (antibody, part only; not given: anti-BACE1 variable domains, not shown: another chain or arm of the molecule) Fc: PAPEFLGGPSVFLFPPKPKDTLYISRTPEVTCVVVDVSQEDPEVQFNWYVDGVEVHNAKTKPREEQFNSTYRVVSVLTVLHQDWLNGKEYKCKVSNKGLPSSIEKTISKAKGQPREPQVYTLPPSQEEMTKNQVSLTCLVKGFYPSDIAVEWESNGQPENNYKTTPPVLDSDGSFFLYSRLTVDKSRWQEGNVFSCSVLHEALHYHITQKSLSLSLGK | 215

--- query ---
Quick note, Kd for anti-Abeta hIgG4 antibody, Fc modification T3 (M252Y/Q311I/N434Y) (antibody, part only; not given: anti-Abeta variable domains, not shown: another chain or arm of the molecule) Fc: PAPEFLGGPSVFLFPPKPKDTLYISRTPEVTCVVVDVSQEDPEVQFNWYVDGVEVHNAKTKPREEQFNSTYRVVSVLTVLHIDWLNGKEYKCKVSNKGLPSSIEKTISKAKGQPREPQVYTLPPSQEEMTKNQVSLTCLVKGFYPSDIAVEWESNGQPENNYKTTPPVLDSDGSFFLYSRLTVDKSRWQEGNVFSCSVMHEALHYHYTQKSLSLSLGK landed at 334
